Catalogue of IC50 readings, one per entry.
# TEST_SYSTEM: SARS-CoV-2 Mpro (Severe acute respiratory syndrome coronavirus 2)
# ASSAY_COMMENT: Dose validation assay (10-point dose-response), fluorescent Mpro protease assay with Ac-Abu-Tle-Leu-Gln-AFC
# Format: biochemical
# CONDITION_DESCRIPTION: 80nM Mpro, 32μM Ac-Abu-Tle-Leu-Gln-AFC, 10 concentrations 150 μM to 7.6 nM, n = 3, 4-parameter nonlinear regression
The response must be a number in µM with no trailing unit.

{"columns": ["COMPOUND", "TEST_SYSTEM", "MEASURED_PROPERTY", "RESULT_VALUE"],
 "data": [
  ["CCOC(=O)c1ccc(N2NC(=O)/C(=C/c3ccc([N+](=O)[O-])o3)C2=O)cc1 [PYR-41]", "SARS-CoV-2 Mpro (Severe acute respiratory syndrome coronavirus 2)", "IC50", 17.4]
]}

Returns the measured IC50 for the input compound. Input: OC[C@H]1O[C@H]([S-])[C@H](O)[C@@H](O)[C@@H]1O.[Au+] [aurothioglucose]
13.3

# get_value(readout='IC50', item= COc1ccc2c(O[C@@H]3C[C@H]4C(=O)N[C@]5(C(=O)O)C[C@H]5/C=C\CCCCC[C@H](NC(=O)OC5CCCC5)C(=O)N4C3)cc(-c3csc(NC(C)C)n3)nc2c1 [ciluprevir] )
20.8

====

# Hill Slope values compiled below
# TEST_SYSTEM: SARS-CoV-2 Mpro (Severe acute respiratory syndrome coronavirus 2, UniProt P0DTD1)
# ASSAY_COMMENT: Dose validation assay (10-point dose-response), fluorescent Mpro protease assay with Ac-Abu-Tle-Leu-Gln-AFC
# Assay type: biochemical
# CONDITION_DESCRIPTION: 80nM Mpro, 32μM Ac-Abu-Tle-Leu-Gln-AFC, n = 3, 4-parameter nonlinear regression
Please respond with just the number, no unit label.

{"columns": ["COMPOUND", "RESULT_VALUE"],
 "data": [
  ["OC[C@H]1O[C@H]([S-])[C@H](O)[C@@H](O)[C@@H]1O.[Au+] [aurothioglucose]", 1.496]
]}

Look up Hill Slope: CC(C)(C)NC(=O)N[C@H](C(=O)N1C[C@H]2[C@@H]([C@H]1C(=O)NC(CC1CCC1)C(=O)C(N)=O)C2(C)C)C(C)(C)C (stereo partly shown) [boceprevir]
0.4123

Find the recorded Hill Slope belonging to COc1ccc2c(O[C@@H]3C[C@H]4C(=O)N[C@]5(C(=O)O)C[C@H]5/C=C\CCCCC[C@H](NC(=O)OC5CCCC5)C(=O)N4C3)cc(-c3csc(NC(C)C)n3)nc2c1 [ciluprevir] and report it.
1.133

Requested read-out: Hill Slope. Entry: CCOC(=O)c1ccc(N2NC(=O)/C(=C/c3ccc([N+](=O)[O-])o3)C2=O)cc1 [PYR-41]
0.9933

Name the recorded Hill Slope for CCCC[C@H](NC(=O)[C@@H]1[C@@H]2[C@H](CN1C(=O)[C@@H](NC(=O)NC1(CS(=O)(=O)C(C)(C)C)CCCCC1)C(C)(C)C)C2(C)C)C(=O)C(=O)NC1CC1 [narlaprevir] .
0.9106

Look at this compound and give its reported Hill Slope. CCCC[C@@H](C=O)NC(=O)[C@H](CC(C)C)NC(=O)OCc1ccccc1 [calpeptin]
1.009

Which Hill Slope value is on record for CCC[C@H](NC(=O)[C@@H]1[C@H]2CCC[C@H]2CN1C(=O)[C@@H](NC(=O)[C@@H](NC(=O)c1cnccn1)C1CCCCC1)C(C)(C)C)C(=O)C(=O)NC1CC1 [telaprevir] ?
1.062
